Provide the recorded pKi for the entries that follow.
biological target: Serum paraoxonase/arylesterase 1 (Homo sapiens, UniProt P27169); assay: Paraoxonase Activity Assay; conditions: pH 10.5; 25 °C
Sequence (P27169 whole entry): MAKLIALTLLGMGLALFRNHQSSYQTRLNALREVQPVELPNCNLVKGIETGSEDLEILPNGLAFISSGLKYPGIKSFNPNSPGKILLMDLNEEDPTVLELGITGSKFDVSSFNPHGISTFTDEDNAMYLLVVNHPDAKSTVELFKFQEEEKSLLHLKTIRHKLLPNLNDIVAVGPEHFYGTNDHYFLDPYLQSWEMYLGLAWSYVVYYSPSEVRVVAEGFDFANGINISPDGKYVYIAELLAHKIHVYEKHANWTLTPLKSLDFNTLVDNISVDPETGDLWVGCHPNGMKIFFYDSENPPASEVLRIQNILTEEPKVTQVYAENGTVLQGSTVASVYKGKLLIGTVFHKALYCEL
pKi field: float, defined as -log10 of concentration (mol/L).

Lookup: Give pKi for CN1C(C(=O)Nc2ccccn2)=C(O)c2sc(Cl)cc2S1(=O)=O
Found: 5.05

Lookup: Give pKi for CC(C(=O)O)c1cccc(C(=O)c2ccccc2)c1 (stereo not given)
Found: 1.89

Lookup: Give pKi for CCCC1CC(C(=O)NC(C(C)O)C2OC(SC)C(O)C(O)C2O)N(C)C1 (stereo not given)
Found: 1.95

Lookup: Give pKi for CN1C(C(=O)Nc2ccccn2)=C(O)c2sccc2S1(=O)=O
Found: 3.51

Lookup: Give pKi for COc1ccc2c(c1)c(CC(=O)O)c(C)n2C(=O)c1ccc(Cl)cc1
Found: 4.01

====

Target: Serum paraoxonase/arylesterase 1 (Homo sapiens, UniProt P27169)
Assay: Paraoxonase Activity Assay
Conditions: pH 10.5; 25 °C
From the text: The enzyme assay was based on the estimation of p-nitrophenol at 412nm. The molar extinction coefficient of p-nitrophenol was used to calculate enzyme activity.
RESULT TYPE: IC50 (µM)
Kindly answer with a numeric value in µM, unit omitted.

Lookup: Give IC50 for CN1C(C(=O)Nc2ccccn2)=C(O)c2sccc2S1(=O)=O [Tenoxicam]
Found: 340

Lookup: Give IC50 for CC(C(=O)O)c1cccc(C(=O)c2ccccc2)c1 (stereo not given) [2-(3-benzoylphenyl)propanoic acid]
Found: 6230

Lookup: Give IC50 for CCCC1CC(C(=O)NC(C(C)O)C2OC(SC)C(O)C(O)C2O)N(C)C1 (stereo not given) [Lincomycine]
Found: 9640

Lookup: Give IC50 for CN1C(C(=O)Nc2ccccn2)=C(O)c2sc(Cl)cc2S1(=O)=O [Lornoxicam]
Found: 136

Lookup: Give IC50 for COc1ccc2c(c1)c(CC(=O)O)c(C)n2C(=O)c1ccc(Cl)cc1 [indometacin]
Found: 195
